Hey, just so you know, these numbers are from paper PMC10583824.

molecular target: PI5P4Kβ (Homo sapiens, UniProt P78356); experiment: PI5P4Kβ ADP-Glo kinase assay
Sequence (P78356 whole entry): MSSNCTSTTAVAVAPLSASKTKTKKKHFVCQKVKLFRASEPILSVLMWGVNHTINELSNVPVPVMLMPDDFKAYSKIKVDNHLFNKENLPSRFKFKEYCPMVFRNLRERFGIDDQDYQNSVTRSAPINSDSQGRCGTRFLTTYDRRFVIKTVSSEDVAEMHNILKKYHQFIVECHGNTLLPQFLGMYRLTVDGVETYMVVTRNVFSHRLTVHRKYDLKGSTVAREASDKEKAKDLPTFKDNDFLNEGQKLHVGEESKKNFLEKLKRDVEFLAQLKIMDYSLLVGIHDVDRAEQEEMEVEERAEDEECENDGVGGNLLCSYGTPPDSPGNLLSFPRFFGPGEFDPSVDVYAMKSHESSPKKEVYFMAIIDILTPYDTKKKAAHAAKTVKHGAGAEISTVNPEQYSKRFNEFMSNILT
reportedMetric: ADP-Glo pIC50 PI5P4Kβ
Answers are plain numbers.

Worked cases, answers included:
>>> print(df.to_string())
                                   molecule                            systemtested         reportedmetric  recordedresult
0  Cc1ncccc1-c1cc2c(Nc3ccc(S(C)(=O)=O)cc3)ncnc2s1 [Compound 17]  PI5P4Kβ (Homo sapiens, UniProt P78356)  ADP-Glo pIC50 PI5P4Kβ             4.7
1  CS(=O)(=O)c1ccc(Nc2ncnc3sc(-c4cccnc4Cl)cc23)cc1 [Compound 15]  PI5P4Kβ (Homo sapiens, UniProt P78356)  ADP-Glo pIC50 PI5P4Kβ             4.9

Record ADP-Glo pIC50 PI5P4Kβ for all entries; do not skip any.
1. Cc1cnccc1-c1cc2c(Nc3ccc(S(C)(=O)=O)cc3)ncnc2s1 [Compound 10]
2. Cn1cc(-c2cc3c(Nc4ccc(S(C)(=O)=O)cc4)ncnc3s2)cn1 [Compound 8]

[4.9, 4.9]
